From: patent US20240376214A1

Target: human c-Met (HGFR), full length, on the cell surface (human, UniProt P08581 25-1390)
Sequence (P08581 25-1390 limits assumed): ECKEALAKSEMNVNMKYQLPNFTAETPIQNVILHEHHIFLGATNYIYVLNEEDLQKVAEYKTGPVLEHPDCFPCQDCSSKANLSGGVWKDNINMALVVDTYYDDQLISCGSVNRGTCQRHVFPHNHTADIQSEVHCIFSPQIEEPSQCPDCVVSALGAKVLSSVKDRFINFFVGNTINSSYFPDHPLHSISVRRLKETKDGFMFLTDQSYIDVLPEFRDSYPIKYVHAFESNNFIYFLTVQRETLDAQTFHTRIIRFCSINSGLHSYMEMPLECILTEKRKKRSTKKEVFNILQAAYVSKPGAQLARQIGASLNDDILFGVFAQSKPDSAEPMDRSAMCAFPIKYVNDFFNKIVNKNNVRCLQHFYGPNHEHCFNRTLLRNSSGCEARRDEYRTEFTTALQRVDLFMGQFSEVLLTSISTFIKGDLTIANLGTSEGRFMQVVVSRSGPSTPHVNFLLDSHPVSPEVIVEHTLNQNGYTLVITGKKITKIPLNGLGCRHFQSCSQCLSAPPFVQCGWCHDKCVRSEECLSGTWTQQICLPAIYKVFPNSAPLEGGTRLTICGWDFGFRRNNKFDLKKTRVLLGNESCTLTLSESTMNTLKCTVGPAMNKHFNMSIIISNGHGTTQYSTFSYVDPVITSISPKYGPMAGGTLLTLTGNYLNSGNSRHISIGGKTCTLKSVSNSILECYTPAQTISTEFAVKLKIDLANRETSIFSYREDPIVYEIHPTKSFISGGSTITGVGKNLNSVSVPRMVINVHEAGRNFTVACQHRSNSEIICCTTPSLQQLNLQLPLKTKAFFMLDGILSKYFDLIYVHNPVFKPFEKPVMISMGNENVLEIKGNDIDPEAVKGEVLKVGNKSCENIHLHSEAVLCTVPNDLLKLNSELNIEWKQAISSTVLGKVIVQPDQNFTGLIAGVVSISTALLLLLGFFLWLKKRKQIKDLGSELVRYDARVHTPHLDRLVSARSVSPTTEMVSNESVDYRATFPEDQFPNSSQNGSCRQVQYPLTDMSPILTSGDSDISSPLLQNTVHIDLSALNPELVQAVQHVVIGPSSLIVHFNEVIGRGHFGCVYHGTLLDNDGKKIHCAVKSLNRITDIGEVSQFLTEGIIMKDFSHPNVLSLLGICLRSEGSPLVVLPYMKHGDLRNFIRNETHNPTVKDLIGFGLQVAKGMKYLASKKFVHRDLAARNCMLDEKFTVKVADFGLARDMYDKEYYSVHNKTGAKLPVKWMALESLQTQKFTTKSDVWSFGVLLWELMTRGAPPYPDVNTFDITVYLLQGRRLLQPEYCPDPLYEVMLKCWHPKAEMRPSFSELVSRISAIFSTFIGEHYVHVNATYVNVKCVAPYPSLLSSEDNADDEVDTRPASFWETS
Assay: cell-based or functional assay
// reported IC50 2, in vitro cytotoxicity, PC-3, -HGF per item
MEASURE: IC50 2, in vitro cytotoxicity, PC-3, -HGF (nM)

BINDER	UNIT LABEL	REPORTED
ADC3a (antibody, human IgG1, kappa, V domains shown, vc-seco-DUBA linker-drug on the engineered cysteine at HC position 41 (Kabat); DAR 1.9) VH: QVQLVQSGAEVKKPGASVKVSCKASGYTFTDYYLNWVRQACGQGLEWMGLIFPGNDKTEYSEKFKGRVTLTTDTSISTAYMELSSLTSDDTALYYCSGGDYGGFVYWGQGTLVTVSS VL: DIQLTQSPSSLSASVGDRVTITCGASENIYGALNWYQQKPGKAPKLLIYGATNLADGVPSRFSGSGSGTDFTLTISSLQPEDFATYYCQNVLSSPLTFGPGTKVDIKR	nM	5.77
ADC3c (antibody, human IgG1, kappa, V domains shown, vc-seco-DUBA linker-drug on the engineered cysteine at HC position 41 (Kabat); DAR 1.8) VH: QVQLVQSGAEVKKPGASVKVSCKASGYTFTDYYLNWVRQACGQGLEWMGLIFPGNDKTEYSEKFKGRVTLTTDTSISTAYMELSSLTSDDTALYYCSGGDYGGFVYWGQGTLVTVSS VL: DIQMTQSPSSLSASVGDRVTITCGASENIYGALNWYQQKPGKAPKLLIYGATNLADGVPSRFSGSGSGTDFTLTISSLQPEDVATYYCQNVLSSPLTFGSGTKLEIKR	nM	112
ADC3d (antibody, human IgG1, kappa, V domains shown, vc-seco-DUBA linker-drug on the engineered cysteine at HC position 41 (Kabat); DAR 1.8) VH: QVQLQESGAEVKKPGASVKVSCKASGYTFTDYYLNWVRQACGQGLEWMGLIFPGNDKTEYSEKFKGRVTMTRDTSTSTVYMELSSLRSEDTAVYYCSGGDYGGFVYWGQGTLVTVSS VL: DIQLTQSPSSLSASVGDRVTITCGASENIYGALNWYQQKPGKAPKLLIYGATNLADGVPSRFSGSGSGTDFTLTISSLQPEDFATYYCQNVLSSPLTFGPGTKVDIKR	nM	54
